growth inhibition listing for selected compounds.
# protocol_notes: NCI Yeast Anticancer Drug Screen. Data for the rad50 strain (AID 155);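 further: 0% = growth of vehicle-only cultures of the same strain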
# study_conditions: S. cerevisiae rad50 strain growth inhibition; at 50.0 µM (retest, dose inferred, filed as 5.0); stronger effect = higher value
About 79,000 compounds went through this panel and 15% of them were active in at least one assay; those are over-represented in the sample as a whole.

{"compound": "CCN(CC)C(C)(C)C(=O)/C=C/c1ccc(Cl)cc1", "growth inhibition, %": 69}
{"compound": "O=C(N/C(=C\\c1ccc(Br)cc1)c1nc2ccccc2[nH]1)c1ccccc1", "growth inhibition, %": 59}
{"compound": "N#CC#Cc1cccc(C#CC#N)c1", "growth inhibition, %": 98}
{"compound": "COc1ccc(N=NN(C)C)cc1", "growth inhibition, %": 65}
{"compound": "CN(Cc1ccccc1)CC(O)c1cc(-c2ccc(Cl)cc2)nc2ccccc12 (stereo unspecified)", "growth inhibition, %": 99}
{"compound": "O=[N+]([O-])c1cccc(S(=O)(=O)Cl)c1", "growth inhibition, %": 10}
{"compound": "O=[N+]([O-])c1ccc(S(=O)(=O)C/C=C/CCl)c([N+](=O)[O-])c1", "growth inhibition, %": 99}
{"compound": "CC1=NN(c2ccccc2)C(=O)C1N=Nc1cc(Cl)cc(S(=O)(=O)O)c1O (stereo unspecified)", "growth inhibition, %": 99}
{"compound": "[Fe+2].c1cc[cH-]c1.c1ccc(-c2ccc[cH-]2)cc1", "growth inhibition, %": 29}
{"compound": "CCOC(=O)c1cc2c(nc1NCc1ccc(OC)c(OC)c1)/C(=C/c1ccccc1)CCCC2", "growth inhibition, %": 94}
{"compound": "CC(C)=NOc1ccc([N+](=O)[O-])cc1[N+](=O)[O-]", "growth inhibition, %": 87}

---

# protocol_notes: NCI Yeast Anticancer Drug Screen. Data for the mlh1 rad18 strain (AID 175)
# study_conditions: S. cerevisiae mlh1 rad18 strain growth inhibition; at 5.0 µM (retest, dose inferred, filed as 0.5); stronger effect = higher value
Compounds without any hit were thinned out: in the full panel of roughly 79,000, 15% have a hit. Activity calls are given as the source filed them. Cut-off read from the data, not from the text of the source: active = growth inhibition above about 70%; inactive = the rest.
Overview of recorded growth inhibition for various molecules

{"molecule": "CC(CN1CCCCCCC1)C(c1ccccc1)c1ccccc1 (stereo not given)", "growth inhibition": "-3% (inactive)"}
{"molecule": "CC(C)C1COC(c2ccc3ccccc3c2-c2c(O[Si](C)(C)C(C)(C)C)ccc3ccccc23)=N1 (stereo not given)", "growth inhibition": "4% (inactive)"}
{"molecule": "CCCN1CN(C(C(=O)N[C@@H]2C(=O)N3C(C(=O)O)=C(C)CSC23)c2ccccc2)CSC1=S (stereo not given in full)", "growth inhibition": "-13% (inactive)"}
{"molecule": "Cc1ccc(S(=O)(=O)N/N=C(\\C=C\\c2ccccc2)c2ccccc2)cc1", "growth inhibition": "20% (inactive)"}
{"molecule": "C=Cc1cc(=O)oc2cc(OC)ccc12", "growth inhibition": "30% (inactive)"}
{"molecule": "CSc1cccc(N2C(=O)C=CC2=O)c1", "growth inhibition": "34% (inactive)"}
{"molecule": "O=S(=O)(Nc1cccc(C2=NCCN2)c1)c1ccc2c(S(=O)(=O)Nc3cccc(C4=NCCN4)c3)cccc2c1", "growth inhibition": "-2% (inactive)"}
{"molecule": "O=[N+]([O-])c1ccc(S(=O)(=O)C/C=C/CCl)c([N+](=O)[O-])c1", "growth inhibition": "71% (active)"}
{"molecule": "CC(C)C1=CC23CCC4C(C)(C(=O)O)CCCC4(C)C2CC1C1C(=O)C=CC(=O)C13 (stereo not given)", "growth inhibition": "88% (active)"}
{"molecule": "O=NNc1ccc2cc3ccc(NN=O)cc3nc2c1", "growth inhibition": "15% (inactive)"}

---

# protocol_notes: NCI Yeast Anticancer Drug Screen. Data for the mlh1 rad18 strain (AID 175)
# study_conditions: S. cerevisiae mlh1 rad18 strain growth inhibition; at 5.0 µM (retest, dose inferred, filed as 0.5)
Compounds without any hit were thinned out: in the full panel of roughly 79,000, 15% have a hit. Calls of active or inactive are those of the source. No stated cut-off is given here; in the data, active means growth inhibition above about 70%; inactive means the rest.
Possible outcomes: true (active), false (inactive)

{"entry_smiles": "CCc1cccc(CC)c1NC(=O)C1=C(C)NC(C)=C(C(=O)Nc2c(CC)cccc2CC)C1c1ccc2c(c1)OCO2", "class_name": "false"}
{"entry_smiles": "O=c1cccccc1[O-].O=c1cccccc1[O-].O=c1cccccc1[O-].[Ce+3]", "class_name": "false"}
{"entry_smiles": "CCC(CC)C(c1ccc(O)cc1)c1ccc(O)cc1", "class_name": "true"}
{"entry_smiles": "CN(C)C(=S)/N=c1\\ss/c(=N\\S(=O)(=O)c2ccccc2)n1-c1ccccc1", "class_name": "false"}
{"entry_smiles": "CC(=O)Nc1ccc(C#N)c2ccccc12", "class_name": "false"}
{"entry_smiles": "COc1ccc(C(=O)Cc2ccc(Cl)cc2)cc1OC", "class_name": "false"}

---

# growth inhibition per record follows
# protocol_notes: NCI Yeast Anticancer Drug Screen. Data for the mec2-1 strain (AID 157)
# study_conditions: S. cerevisiae mec2-1 strain, at 50.0 µM, stronger effect = higher value
The panel holds about 79,000 compounds, 15% with a hit somewhere; the sample as a whole holds those more often.

{"molecule": "CC(C)C1=CC23CCC4C(C)(C(=O)O)CCCC4(C)C2CC1C1C(=O)C=CC(=O)C13 (stereo not given)", "growth inhibition (%)": 96.3}
{"molecule": "O=C1OC(c2ccc(O)cc2)=C(c2ccccc2)C1c1ccccc1 (stereo not given)", "growth inhibition (%)": 99.5}
{"molecule": "CC(C)N(CCOc1ccc(/C=C/c2ccccc2)cc1)C(C)C", "growth inhibition (%)": -1.45}
{"molecule": "C=C(c1ccc2nc(NC(=O)OC)[nH]c2c1)c1cccs1", "growth inhibition (%)": 93.2}
{"molecule": "C[N+]1=C(/C=C\\c2ccc(O)c3ccccc23)C(C)(C)c2ccccc21", "growth inhibition (%)": 50.2}

---

// values below are reported growth inhibition
# protocol_notes: NCI Yeast Anticancer Drug Screen. Data for the bub3 strain (AID 167)
# study_conditions: S. cerevisiae bub3 mutant strain, at 5.0 µM (retest, dose inferred, filed as 0.5), stronger effect = higher value
Compounds without any hit were thinned out: in the full panel of roughly 79,000, 15% have a hit.
assay_endpoint: growth inhibition (%)

{"compound": "NC(=O)c1ccccc1OC(=O)NCCO", "reported": -4}
{"compound": "C(#Cc1ccccc1)Sc1ccccc1", "reported": 29}
{"compound": "CC(/C=C/c1ccc(Cl)cc1)=N\\NC(N)=S", "reported": 1}
{"compound": "O=C(O)c1ccc(N=CC2CO2)cc1 (configuration not stated)", "reported": 90}
{"compound": "CCOC(=O)NC(NNc1ccc([N+](=O)[O-])cc1[N+](=O)[O-])(C(F)(F)F)C(F)(F)F", "reported": 19}
{"compound": "CCCCCCCCCCCCC1N=C(N)N2CCCC2=C1C(=O)OC (configuration not stated)", "reported": 99}
{"compound": "CSc1c(C)n([O-])c2cc(Cl)c(Cl)cc2[n+]1=O", "reported": 24}
{"compound": "Oc1ccc(CCCCCc2ccc(O)cc2)cc1", "reported": 13}
{"compound": "COc1cc(C(=O)C2OC2c2ccc(Cl)cc2)c([N+](=O)[O-])cc1OC (configuration not stated)", "reported": 15}
{"compound": "O=C1c2ccccc2C(O)(c2ccccc2)c2c(Cl)cccc21 (configuration not stated)", "reported": -5}
{"compound": "CN(C)CC/C(=N\\Nc1ccc([N+](=O)[O-])cc1)c1ccccc1", "reported": 8}
{"compound": "COc1ccc2cc(C3CCCC3(C)CC(=O)O)ccc2c1 (configuration not stated)", "reported": 2}

---

The entries below are paired with their reported growth inhibition.
# protocol_notes: NCI Yeast Anticancer Drug Screen. Data for the cln2 rad14 strain (AID 165);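 further: 0% = growth equal to vehicle treated cultures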
# study_conditions: S. cerevisiae cln2 rad14 strain, at 5.0 µM (retest, dose inferred, filed as 0.5), stronger effect = higher value
About 79,000 compounds went through this panel and 15% of them were active in at least one assay; those are over-represented in the sample as a whole.
assay_endpoint: growth inhibition (%)

{"compound": "O=C1c2ccccc2C(=O)[C@@]23O[C@@]12C1(Oc2cccc4cccc(c24)O1)[C@@H]1O[C@@H]1[C@@H]3O", "assay_endpoint": "growth inhibition", "reported": 48}
{"compound": "O=C(O)CC(NC(=O)CP(=O)(O)O)C(=O)O.[NH-]C1CCCCC1[NH-].[Pt+2] (stereo unspecified)", "assay_endpoint": "growth inhibition", "reported": 22}
{"compound": "COc1ccc(NC(=S)N/N=C/c2cccc(C)n2)cc1", "assay_endpoint": "growth inhibition", "reported": 23}
{"compound": "CCCCC(CC)CN1C(=O)C2C3C=CC(C3)C2C1=O (stereo unspecified)", "assay_endpoint": "growth inhibition", "reported": 28}
{"compound": "Clc1ccc(C(c2ccc(Cl)cc2)c2cncnc2)cc1", "assay_endpoint": "growth inhibition", "reported": 10}
{"compound": "CCC(Cl)COP(=O)(OC(c1ccc(Cl)c(Cl)c1)P(=O)(OCC(Cl)CC)OCC(Cl)CC)C(CC)CCl (stereo unspecified)", "assay_endpoint": "growth inhibition", "reported": -4}
{"compound": "C/C(=N\\OS(=O)(=O)O)SC1OC(CO)C(O)C(O)C1O (stereo unspecified)", "assay_endpoint": "growth inhibition", "reported": -16}
{"compound": "CCN(CC)CCNc1c(OC)cc(C)c2sc3ccccc3c(=O)c12", "assay_endpoint": "growth inhibition", "reported": 1}
{"compound": "O=C(O)c1cccc(S(=O)(=O)NN2C(=O)CSC2c2c(O)ccc3ccccc23)c1 (stereo unspecified)", "assay_endpoint": "growth inhibition", "reported": -4}
{"compound": "CCCCCCCCCCCCCCCC[N+](C)(C)c1ccccc1", "assay_endpoint": "growth inhibition", "reported": 98}
{"compound": "C[C@H](CCC1=NCCN1)[C@H]1CC[C@H]2[C@@H]3CC[C@@H]4C[C@H](O)CC[C@]4(C)[C@H]3C[C@H](O)[C@]12C", "assay_endpoint": "growth inhibition", "reported": 59}
{"compound": "O=C(/C=C/c1ccc(Cl)c(Cl)c1)CCN1CCN(CCC(=O)/C=C/c2ccc(Cl)c(Cl)c2)CC1", "assay_endpoint": "growth inhibition", "reported": 16}
{"compound": "O=C1C(=O)c2ccccc2C(O)=C1C(c1ccccc1)c1ccccc1", "assay_endpoint": "growth inhibition", "reported": 27}
{"compound": "CCCCCN=Cc1c(O)c(O)c(C(C)C)c2cc(C)c(-c3c(C)cc4c(C(C)C)c(O)c(O)c(C=NCCCCC)c4c3O)c(O)c12", "assay_endpoint": "growth inhibition", "reported": 1}
{"compound": "CC(=O)CC(C)=NCCN=C(C)CC(C)=O.[Pd]", "assay_endpoint": "growth inhibition", "reported": -5}
{"compound": "Brc1c2nc3ccccc3nc2n2ccc3ccccc3c12", "assay_endpoint": "growth inhibition", "reported": -14}
{"compound": "COc1ccc(N=NC(C(=O)c2ccccc2)C(=O)c2ccccc2)cc1", "assay_endpoint": "growth inhibition", "reported": 6}
{"compound": "CCCCCCCCCCCCCCCCP(=O)([O-])OCC[N+](C)(C)C", "assay_endpoint": "growth inhibition", "reported": -27}
{"compound": "NC1NCCC(=O)N1CCc1c[nH]c2ccccc12 (stereo unspecified)", "assay_endpoint": "growth inhibition", "reported": 31}
{"compound": "Nc1ccc2ccccc2c1N=Cc1ccccc1[N+](=O)[O-]", "assay_endpoint": "growth inhibition", "reported": -9}
{"compound": "CN(C)c1nc(Cl)nc2c1ncn2C1OCC(O)C(O)C1O (stereo unspecified)", "assay_endpoint": "growth inhibition", "reported": 1}
